Just for reference, patent US20090048310A1 is where these values come from.

# Test system: ACV-resistant VZV (Kanno-Br^ACV-R strain)
# ASSAY_DETAILS: Anti-ACV-resistant VZV activity assay (plaque reduction)
# Format: cell-based, varicella zoster virus (VZV)
# MEASUREMENT_CONTEXT: Human alphaherpesvirus 3, HEF, read-out: EC50, concentration which inhibits 50% of the number of plaques (Example 1)
EXPERIMENTAL_ENDPOINT: EC50
# number then unit; no other words

ITEM_SMILES	EC50
Cc1cccc(C)c1N(CC(=O)Nc1ccc(-c2ncon2)cc1)C(=O)C1CCS(=O)(=O)CC1	82 nM

Field: next molecule
Query: Annotate the molecule Cc1ccc(N(CC(=O)Nc2ccc(-c3cocn3)cc2)C(=O)C2CCS(=O)(=O)CC2)cc1 with its measured EC50.
Result: 35 nM

###

# System: ACV-resistant HSV-1 (A4-3^ACV-R strain)
# ASSAY_DETAILS: Anti-ACV-resistant HSV-1 activity assay (plaque reduction)
# Format: cell-based
# MEASUREMENT_CONTEXT: Human alphaherpesvirus 1, Vero, read-out: EC50, concentration which inhibits 50% of the number of plaques (Example 2), ACV-resistant HSV-1 A4-3 ACV-R strain in Vero cells
Each record here notes measured EC50.
Could you give me the number in nM? Just the number is fine.

Worked cases, answers included:
ITEM_SMILES	EC50 [nM]
Nc1nc2c(ncn2COCCO)c(=O)[nH]1	68000
Cc1cccc(C)c1N(CC(=O)Nc1ccc(-c2ncon2)cc1)C(=O)C1CCS(=O)(=O)CC1	68

Field: next compound
Query: Annotate the compound Cc1ccc(N(CC(=O)Nc2ccc(-c3cocn3)cc2)C(=O)C2CCS(=O)(=O)CC2)cc1 with its measured EC50.
Result: 35

###

# Tested on: ACV-resistant HSV-1 (A4-3^ACV-R strain)
# ASSAY_DETAILS: Anti-ACV-resistant HSV-1 activity assay (plaque reduction)
# Assay type: cell-based
# MEASUREMENT_CONTEXT: read-out: EC50, concentration which inhibits 50% of the number of plaques (Example 2); ACV-resistant HSV-1 A4-3 ACV-R strain in Vero cells
EXPERIMENTAL_ENDPOINT: EC50 (µM)
Could you give me the number in µM? Just the number is fine.

Query: Would you please give the reported EC50 of Nc1nc2c(ncn2COCCO)c(=O)[nH]1 [ACV, acyclovir] with ACV-resistant HSV-1 (A4-3^ACV-R strain)?
Result: 120
